# test description: Absorption wavelength of the synthesized dye (HP 8452 diode array spectrophotometer)
# Format: physicochemical
# stated conditions: water
endpoint label: λabs (water) (nm)
State the answer as a number, implicitly in nm.

For reference, reported λabs (water) for `CC[N+]1=C(/C=C/C=C/C=C2/N(CCCCCCCC(=O)O)c3ccc4c(S(=O)(=O)O)cc(S(=O)(=O)O)cc4c3C2(C)C)C(C)(C)c2c1ccc1c(S(=O)(=O)O)cc(S(=O)(=O)[O-])cc21` stands at 675

Consider `CC[N+]1=C(/C=C/C=C/C=C2/N(CCCCCC(=O)O)c3ccc4c(S(=O)(=O)O)cc(S(=O)(=O)O)cc4c3C2(C)C)C(C)(C)c2c1ccc1c(S(=O)(=O)[O-])cc(S(=O)(=O)O)cc21` . Its measured λabs (water) is 675

The recorded λabs (water) for entry `C=CS(=O)(=O)CCNC(=O)CCCCCCCN1/C(=C/C=C/C=C/C2=[N+](CC)c3ccc4c(S(=O)(=O)O)cc(S(=O)(=O)[O-])cc4c3C2(C)C)C(C)(C)c2c1ccc1c(S(=O)(=O)O)cc(S(=O)(=O)O)cc21` equals 675

Reported λabs (water) of `C=CS(=O)(=O)CCNC(=O)CCCCCN1/C(=C/C=C/C2=[N+](CC)c3ccc4c(S(=O)(=O)[O-])cc(S(=O)(=O)O)cc4c3C2(C)C)C(C)(C)c2c1ccc1c(S(=O)(=O)O)cc(S(=O)(=O)O)cc21` : 579

* * *

# test description: Emission wavelength at maximum emission (Perkin Elmer LS-55)
# Type: physicochemical
# stated conditions: water
Overview of reported λfl (water) across a group of compounds:
Write it as a number; the unit nm goes unstated.

Recorded λfl (water), per entry:
- mol smiles: "C=CS(=O)(=O)CCNC(=O)CCCCCN1/C(=C/C=C/C=C/C2=[N+](CC)c3ccc4c(S(=O)(=O)[O-])cc(S(=O)(=O)O)cc4c3C2(C)C)C(C)(C)c2c1ccc1c(S(=O)(=O)O)cc(S(=O)(=O)O)cc21"
  λfl (water) [nm]: 695
- mol smiles: "C=CS(=O)(=O)CCNC(=O)CCCCCCCN1/C(=C/C=C/C=C/C2=[N+](CC)c3ccc4c(S(=O)(=O)O)cc(S(=O)(=O)[O-])cc4c3C2(C)C)C(C)(C)c2c1ccc1c(S(=O)(=O)O)cc(S(=O)(=O)O)cc21"
  λfl (water) [nm]: 704
- mol smiles: "CC[N+]1=C(/C=C/C=C/C=C2/N(CCCCCC(=O)O)c3ccc4c(S(=O)(=O)O)cc(S(=O)(=O)O)cc4c3C2(C)C)C(C)(C)c2c1ccc1c(S(=O)(=O)[O-])cc(S(=O)(=O)O)cc21"
  λfl (water) [nm]: 695
- mol smiles: "C=CS(=O)(=O)CCNC(=O)CCCCCN1/C(=C/C=C/C=C/C=C/C2=[N+](CC)c3ccc4c(S(=O)(=O)[O-])cc(S(=O)(=O)O)cc4c3C2(C)C)C(C)(C)c2c1ccc1c(S(=O)(=O)O)cc(S(=O)(=O)O)cc21"
  λfl (water) [nm]: 803
- mol smiles: "CC[N+]1=C(/C=C/C=C/C=C2/N(CCCCCCCC(=O)O)c3ccc4c(S(=O)(=O)O)cc(S(=O)(=O)O)cc4c3C2(C)C)C(C)(C)c2c1ccc1c(S(=O)(=O)O)cc(S(=O)(=O)[O-])cc21"
  λfl (water) [nm]: 704

So, `CC[N+]1=C(/C=C/C=C2/N(CCCCCC(=O)O)c3ccc4c(S(=O)(=O)O)cc(S(=O)(=O)O)cc4c3C2(C)C)C(C)(C)c2c1ccc1c(S(=O)(=O)[O-])cc(S(=O)(=O)O)cc21` ? Its λfl (water) was 594

Entry `C=CS(=O)(=O)CCNC(=O)CCCCCN1/C(=C/C=C/C2=[N+](CC)c3ccc4c(S(=O)(=O)[O-])cc(S(=O)(=O)O)cc4c3C2(C)C)C(C)(C)c2c1ccc1c(S(=O)(=O)O)cc(S(=O)(=O)O)cc21` , λfl (water) reported as 594

Measured λfl (water) of `CC[N+]1=C(/C=C/C=C/C=C/C=C2/N(CCCCCC(=O)O)c3ccc4c(S(=O)(=O)O)cc(S(=O)(=O)O)cc4c3C2(C)C)C(C)(C)c2c1ccc1c(S(=O)(=O)[O-])cc(S(=O)(=O)O)cc21` : 803
